Reference source: BigSolDB 2.1

CONDITION DETAILS: in methanol, 293.15 K
MEASURED METRIC: solubility (mole fraction)
Field format: numeric only.

Tell me the measured solubility (mole fraction) of CO[C@H]1/C=C/O[C@@]2(C)Oc3c(C)c(O)c4c(O)c(c(/C=N/N5CCN(C6CCCC6)CC5)c(O)c4c3C2=O)NC(=O)/C(C)=C\C=C\[C@H](C)[C@H](O)[C@@H](C)[C@@H](O)[C@@H](C)[C@H](OC(C)=O)[C@@H]1C , please.
0.0235

###

CONDITION DETAILS: in methanol, 278.15 K
MEASURED METRIC: solubility (mole fraction)
// no unit string in output, number only

Request the reported solubility (mole fraction) associated with CO[C@H]1/C=C/O[C@@]2(C)Oc3c(C)c(O)c4c(O)c(c(/C=N/N5CCN(C6CCCC6)CC5)c(O)c4c3C2=O)NC(=O)/C(C)=C\C=C\[C@H](C)[C@H](O)[C@@H](C)[C@@H](O)[C@@H](C)[C@H](OC(C)=O)[C@@H]1C
0.022

###

CONDITION DETAILS: in methanol, 303.15 K
MEASURED METRIC: solubility (mole fraction)
Give a plain numeric answer without units written out.

Record request: solubility (mole fraction) value, item CO[C@H]1/C=C/O[C@@]2(C)Oc3c(C)c(O)c4c(O)c(c(/C=N/N5CCN(C6CCCC6)CC5)c(O)c4c3C2=O)NC(=O)/C(C)=C\C=C\[C@H](C)[C@H](O)[C@@H](C)[C@@H](O)[C@@H](C)[C@H](OC(C)=O)[C@@H]1C
0.0249

###

CONDITION DETAILS: in acetone, 297.15 K
MEASURED METRIC: solubility (mole fraction)
Could you respond with only the numeric value?

Quick check: solubility (mole fraction) of CO[C@H]1/C=C/O[C@@]2(C)Oc3c(C)c(O)c4c(O)c(c(/C=N/N5CCN(C6CCCC6)CC5)c(O)c4c3C2=O)NC(=O)/C(C)=C\C=C\[C@H](C)[C@H](O)[C@@H](C)[C@@H](O)[C@@H](C)[C@H](OC(C)=O)[C@@H]1C ?
0.000563

###

CONDITION DETAILS: in dichloromethane, 293.15 K
MEASURED METRIC: solubility (mole fraction)
# answer = number (no unit)

GET /values?readout=solubility (mole fraction)&item= CO[C@H]1/C=C/O[C@@]2(C)Oc3c(C)c(O)c4c(O)c(c(/C=N/N5CCN(C6CCCC6)CC5)c(O)c4c3C2=O)NC(=O)/C(C)=C\C=C\[C@H](C)[C@H](O)[C@@H](C)[C@@H](O)[C@@H](C)[C@H](OC(C)=O)[C@@H]1C
0.0184

###

CONDITION DETAILS: in dichloromethane, 288.15 K
MEASURED METRIC: solubility (mole fraction)
// print number alone

// solubility (mole fraction) lookup, key: CO[C@H]1/C=C/O[C@@]2(C)Oc3c(C)c(O)c4c(O)c(c(/C=N/N5CCN(C6CCCC6)CC5)c(O)c4c3C2=O)NC(=O)/C(C)=C\C=C\[C@H](C)[C@H](O)[C@@H](C)[C@@H](O)[C@@H](C)[C@H](OC(C)=O)[C@@H]1C
0.0175

###

CONDITION DETAILS: in ethanol, 288.15 K
MEASURED METRIC: solubility (mole fraction)
In your answer, state the number alone without any accompanying words.

Sample CO[C@H]1/C=C/O[C@@]2(C)Oc3c(C)c(O)c4c(O)c(c(/C=N/N5CCN(C6CCCC6)CC5)c(O)c4c3C2=O)NC(=O)/C(C)=C\C=C\[C@H](C)[C@H](O)[C@@H](C)[C@@H](O)[C@@H](C)[C@H](OC(C)=O)[C@@H]1C — what was its solubility (mole fraction)?
0.000541

###

CONDITION DETAILS: in methanol, 323.15 K
MEASURED METRIC: solubility (mole fraction)

Tell me the measured solubility (mole fraction) of CO[C@H]1/C=C/O[C@@]2(C)Oc3c(C)c(O)c4c(O)c(c(/C=N/N5CCN(C6CCCC6)CC5)c(O)c4c3C2=O)NC(=O)/C(C)=C\C=C\[C@H](C)[C@H](O)[C@@H](C)[C@@H](O)[C@@H](C)[C@H](OC(C)=O)[C@@H]1C , please.
0.029

###

CONDITION DETAILS: in dichloromethane, 283.15 K
MEASURED METRIC: solubility (mole fraction)
Provide a numeric answer; units are not to be included.

Which solubility (mole fraction) is reported for this compound? CO[C@H]1/C=C/O[C@@]2(C)Oc3c(C)c(O)c4c(O)c(c(/C=N/N5CCN(C6CCCC6)CC5)c(O)c4c3C2=O)NC(=O)/C(C)=C\C=C\[C@H](C)[C@H](O)[C@@H](C)[C@@H](O)[C@@H](C)[C@H](OC(C)=O)[C@@H]1C
0.0165

###

CONDITION DETAILS: in methanol, 313.15 K
MEASURED METRIC: solubility (mole fraction)

Look up solubility (mole fraction): CO[C@H]1/C=C/O[C@@]2(C)Oc3c(C)c(O)c4c(O)c(c(/C=N/N5CCN(C6CCCC6)CC5)c(O)c4c3C2=O)NC(=O)/C(C)=C\C=C\[C@H](C)[C@H](O)[C@@H](C)[C@@H](O)[C@@H](C)[C@H](OC(C)=O)[C@@H]1C
0.0267

###

CONDITION DETAILS: in ethanol, 308.15 K
MEASURED METRIC: solubility (mole fraction)

# query: solubility (mole fraction) of entry CO[C@H]1/C=C/O[C@@]2(C)Oc3c(C)c(O)c4c(O)c(c(/C=N/N5CCN(C6CCCC6)CC5)c(O)c4c3C2=O)NC(=O)/C(C)=C\C=C\[C@H](C)[C@H](O)[C@@H](C)[C@@H](O)[C@@H](C)[C@H](OC(C)=O)[C@@H]1C
0.000625

###

CONDITION DETAILS: in methanol, 283.15 K
MEASURED METRIC: solubility (mole fraction)
Just the number, please, no unit attached.

// query solubility (mole fraction) value for entry CO[C@H]1/C=C/O[C@@]2(C)Oc3c(C)c(O)c4c(O)c(c(/C=N/N5CCN(C6CCCC6)CC5)c(O)c4c3C2=O)NC(=O)/C(C)=C\C=C\[C@H](C)[C@H](O)[C@@H](C)[C@@H](O)[C@@H](C)[C@H](OC(C)=O)[C@@H]1C
0.0224

###

CONDITION DETAILS: in ethanol, 297.15 K
MEASURED METRIC: solubility (mole fraction)
Output spec: single numeric token, no unit.

Please look up its solubility (mole fraction): CO[C@H]1/C=C/O[C@@]2(C)Oc3c(C)c(O)c4c(O)c(c(/C=N/N5CCN(C6CCCC6)CC5)c(O)c4c3C2=O)NC(=O)/C(C)=C\C=C\[C@H](C)[C@H](O)[C@@H](C)[C@@H](O)[C@@H](C)[C@H](OC(C)=O)[C@@H]1C
0.000583

###

CONDITION DETAILS: in acetone, 293.15 K
MEASURED METRIC: solubility (mole fraction)
# respond with the number and nothing more

Quick one: solubility (mole fraction) for CO[C@H]1/C=C/O[C@@]2(C)Oc3c(C)c(O)c4c(O)c(c(/C=N/N5CCN(C6CCCC6)CC5)c(O)c4c3C2=O)NC(=O)/C(C)=C\C=C\[C@H](C)[C@H](O)[C@@H](C)[C@@H](O)[C@@H](C)[C@H](OC(C)=O)[C@@H]1C ?
0.000549

###

CONDITION DETAILS: in dichloromethane, 303.15 K
MEASURED METRIC: solubility (mole fraction)
# answer = number (no unit)

# query: solubility (mole fraction) of entry CO[C@H]1/C=C/O[C@@]2(C)Oc3c(C)c(O)c4c(O)c(c(/C=N/N5CCN(C6CCCC6)CC5)c(O)c4c3C2=O)NC(=O)/C(C)=C\C=C\[C@H](C)[C@H](O)[C@@H](C)[C@@H](O)[C@@H](C)[C@H](OC(C)=O)[C@@H]1C
0.0209

###

CONDITION DETAILS: in acetone, 313.15 K
MEASURED METRIC: solubility (mole fraction)
Enter a number only.

I am curious: what solubility (mole fraction) value has been reported for CO[C@H]1/C=C/O[C@@]2(C)Oc3c(C)c(O)c4c(O)c(c(/C=N/N5CCN(C6CCCC6)CC5)c(O)c4c3C2=O)NC(=O)/C(C)=C\C=C\[C@H](C)[C@H](O)[C@@H](C)[C@@H](O)[C@@H](C)[C@H](OC(C)=O)[C@@H]1C ?
0.000635

###

CONDITION DETAILS: in chloroform, 308.15 K
MEASURED METRIC: solubility (mole fraction)

Entry CO[C@H]1/C=C/O[C@@]2(C)Oc3c(C)c(O)c4c(O)c(c(/C=N/N5CCN(C6CCCC6)CC5)c(O)c4c3C2=O)NC(=O)/C(C)=C\C=C\[C@H](C)[C@H](O)[C@@H](C)[C@@H](O)[C@@H](C)[C@H](OC(C)=O)[C@@H]1C has what solubility (mole fraction)?
0.0308
